assay-comment: Area under curve was determine after peroral administration at 10 mpk in dog
Type: ADME, organism-based, Canis lupus familiaris
condition-info: in vivo, po, 10 mg/kg

{"substance-smiles": "CC(C)(C)NC(=O)[C@@H]1CN(Cc2cccnc2)CCN1C[C@@H](O)C[C@@H](Cc1ccccc1)C(=O)N[C@H]1c2ccccc2C[C@H]1O.O", "AUC / µM·h": 12.5}

====

Measured IC50 by item
target-or-test-system: Human immunodeficiency virus type 1 protease (Human immunodeficiency virus 1)
assay-comment: Inhibitory activity against HIV-1 Protease from PI-resistant HIV-1 (strain V-18C)
assay-metric: IC50 (nM)

{"substance-smiles": "O=C(N[C@H]1c2ccccc2OC[C@H]1O)[C@H](Cc1ccccc1)C[C@H](O)CN1CCN(Cc2ccc(-c3ccccn3)o2)C[C@H]1C(=O)NCC(F)(F)F", "target-or-test-system": "Human immunodeficiency virus type 1 protease (Human immunodeficiency virus 1)", "units-of-measure": "nM", "value-observed": 0.7}
{"substance-smiles": "O=C(N[C@H]1c2ccccc2OC[C@H]1O)[C@H](Cc1ccccc1)C[C@H](O)CN1CCN(Cc2ccc(-c3cccnc3)o2)C[C@H]1C(=O)NCC(F)(F)F", "target-or-test-system": "Human immunodeficiency virus type 1 protease (Human immunodeficiency virus 1)", "units-of-measure": "nM", "value-observed": 0.7}
{"substance-smiles": "O=C(N[C@H]1c2ccccc2OC[C@H]1O)[C@H](Cc1ccccc1)C[C@H](O)CN1CCN(Cc2ccc(-c3ccncc3)o2)C[C@H]1C(=O)NCC(F)(F)F", "target-or-test-system": "Human immunodeficiency virus type 1 protease (Human immunodeficiency virus 1)", "units-of-measure": "nM", "value-observed": 1.3}
{"substance-smiles": "CC(C)(c1cc2cnccc2o1)N1CCN(C[C@@H](O)C[C@@H](Cc2ccccc2)C(=O)N[C@H]2c3ccccc3OC[C@H]2O)[C@H](C(=O)NCC(F)(F)F)C1", "target-or-test-system": "Human immunodeficiency virus type 1 protease (Human immunodeficiency virus 1)", "units-of-measure": "nM", "value-observed": 5.2}
{"substance-smiles": "CC(C)(c1ccc(-c2ccncc2)o1)N1CCN(C[C@@H](O)C[C@@H](Cc2ccccc2)C(=O)N[C@H]2c3ccccc3OC[C@H]2O)[C@H](C(=O)NCC(F)(F)F)C1", "target-or-test-system": "Human immunodeficiency virus type 1 protease (Human immunodeficiency virus 1)", "units-of-measure": "nM", "value-observed": 1.2}

====

assay-comment: Cmax was determine after peroral administration at 10 mpk in Rhesus
Type: ADME, organism-based
Set-up: dose 10 mpk, route oral
condition-info: cercopithecidae, in vivo, po, 10 mg/kg

{"substance-smiles": "CC(C)(c1ccc(-c2ccncc2)o1)N1CCN(C[C@@H](O)C[C@@H](Cc2ccccc2)C(=O)N[C@H]2c3ccccc3OC[C@H]2O)[C@H](C(=O)NCC(F)(F)F)C1", "units-of-measure": "µM", "Cmax": 4.4}

====

Each entry below carries its reported IC50.
target-or-test-system: Human immunodeficiency virus type 1 protease (Human immunodeficiency virus 1, UniProt Q72874)
assay-comment: Inhibitory activity against HIV-1 Protease from PI-resistant HIV-1 (strain K-60C)

{"substance-smiles": "O=C(N[C@H]1c2ccccc2OC[C@H]1O)[C@H](Cc1ccccc1)C[C@H](O)CN1CCN(Cc2ccc(-c3cccnc3)o2)C[C@H]1C(=O)NCC(F)(F)F", "IC50, nM": 0.3}
{"substance-smiles": "O=C(N[C@H]1c2ccccc2OC[C@H]1O)[C@H](Cc1ccccc1)C[C@H](O)CN1CCN(Cc2ccc(-c3ccccn3)o2)C[C@H]1C(=O)NCC(F)(F)F", "IC50, nM": 0.5}
{"substance-smiles": "CC(C)(c1cc2cnccc2o1)N1CCN(C[C@@H](O)C[C@@H](Cc2ccccc2)C(=O)N[C@H]2c3ccccc3OC[C@H]2O)[C@H](C(=O)NCC(F)(F)F)C1", "IC50, nM": 5.8}
{"substance-smiles": "O=C(N[C@H]1c2ccccc2OC[C@H]1O)[C@H](Cc1ccccc1)C[C@H](O)CN1CCN(Cc2ccc(-c3ccncc3)o2)C[C@H]1C(=O)NCC(F)(F)F", "IC50, nM": 0.6}
{"substance-smiles": "CC(C)(c1ccc(-c2ccncc2)o1)N1CCN(C[C@@H](O)C[C@@H](Cc2ccccc2)C(=O)N[C@H]2c3ccccc3OC[C@H]2O)[C@H](C(=O)NCC(F)(F)F)C1", "IC50, nM": 0.3}
